Every entry's value here was drawn from ChEMBL document CHEMBL4622874.

Assay: Lipophilicity, log D of the compound at pH 7.4 by HPLC analysis
Format: physicochemical
Settings: buffer
Could you label it Met if measured logD is 3 or higher, and Not met otherwise?

Sample answers from the record:
Structure string	Label class
Cc1ccc(-n2nccn2)c(C(=O)N2CCCO[C@H]2Cn2cc(-c3ccc(F)cn3)nn2)c1	Not met
Cc1ccc(-n2nccn2)c(C(=O)N2CCO[C@@H]2Cn2ccc(-c3ccc(F)cn3)n2)c1	Not met
CCN(CCn1ccc(-c2ccc(F)cn2)n1)C(=O)c1cc(C)ccc1-n1nccn1	Not met
O=C(c1cc(F)ccc1-n1nccn1)N1CCCO[C@H]1Cn1ccc(-c2ccc(F)cn2)n1	Not met
Cc1ccc(-n2nccn2)c(C(=O)N2CCS[C@H]2Cn2ccc(-c3ccc(F)cn3)n2)c1	Met
O=C(c1cc(F)ccc1-c1ncccn1)N1CCCO[C@H]1Cn1ccc(-c2ccc(F)cn2)n1	Not met

Hello, I need to know if `Cc1ccc(-n2nccn2)c(C(=O)N2CCOC[C@H]2Cn2ccc(-c3ccc(F)cn3)n2)c1` has measured logD not below 3. Thanks! Not met

Check `Cc1ccc(-n2nccn2)c(C(=O)N2CCCO[C@H]2Cn2cc(-c3ccc(F)cc3)cn2)c1` too. Met
